target: Bcl6 (Homo sapiens (Human), UniProt P41182); test: Bcl-6 protein degradation experiment in OCI-LY1 cells; assay type: cell-based; settings: 24 hours
DC50 values for the compounds below.

[[record]]
compound = "CNC(=O)COc1cc2cc(Nc3nc(N4CCC(CN5CCN6c7cc(F)c(C8CCC(=O)NC8=O)cc7CC[C@H]6C5)CC4)ncc3Cl)ccc2n(C(C)C)c1=O (stereo partly drawn) [Trifluoroacetate of compound 57]"
endpoint_value = "< 0.1 µM"

[[record]]
compound = "CNC(=O)COc1cc2cc(Nc3nc(N4CCC(O[C@H]5C[C@H](N6CCN7c8cc(F)c(C9CCC(=O)NC9=O)cc8CC[C@H]7C6)C5)CC4)ncc3Cl)ccc2n(C(C)C)c1=O (stereo partly drawn) [Trifluoroacetate of compound 58]"
endpoint_value = "< 0.1 µM"


# evaluate next
[Q] Requested field: DC50. Item: CNC(=O)COc1cc2cc(Nc3nc(N4CCC(N5CCN(c6ccc(C7CCC(=O)NC7=O)cc6)CC5)CC4)ncc3Cl)ccc2n(C)c1=O (stereo not drawn)
[A] < 0.1 µM
